Tested on: heart rate of Beagle dogs
assay.protocol: Heart rate changes after iv administration in Beagle dogs
Assay type: in vivo, Beagle dog
measurement.conditions: 0.10 mg/kg iv
Each record is given MET if its reported 0.5-4 h area increase under heart rate curve (%) is strictly below 2%. Records at or above 2% are given NOT MET.

For this molecule, is 0.5-4 h area increase under heart rate curve (%) lower than 2%? CC(Cc1ccc(OCC[N+]23CCC(CC2)[C@@H](OC[C@@](O)(c2ccccc2)C2CCCC2)C3)cc1)NC[C@H](O)c1ccc(O)c(NC=O)c1 (stereo partly drawn)
NOT MET

For this molecule, is 0.5-4 h area increase under heart rate curve (%) lower than 2%? CC(NC[C@H](O)c1ccc(O)c(NC=O)c1)c1ccc(OCCC[N+]23CCC(CC2)[C@@H](OC[C@@](O)(c2ccccc2)C2CCCC2)C3)cc1.[Br-] (stereo partly drawn)
NOT MET

For this molecule, is 0.5-4 h area increase under heart rate curve (%) lower than 2%? O=c1ccc2c([C@@H](O)CNCCCOc3ccc(OCCC[N+]45CCC(CC4)[C@@H](OC[C@@](O)(c4ccccc4)C4CCCC4)C5)cc3)ccc(O)c2[nH]1.[Br-]
NOT MET

For this molecule, is 0.5-4 h area increase under heart rate curve (%) lower than 2%? O=CNc1cc([C@@H](O)CNCCCOc2ccc(OCCC[N+]34CCC(CC3)[C@@H](OC[C@@](O)(c3ccccc3)C3CCCC3)C4)cc2)ccc1O
NOT MET

For this molecule, is 0.5-4 h area increase under heart rate curve (%) lower than 2%? OCc1cc([C@@H](O)CNCCCCCCCCC[N+]23CCC(CC2)[C@@H](OC[C@@](O)(c2ccccc2)C2CCCC2)C3)ccc1O.[Br-]
MET

For this molecule, is 0.5-4 h area increase under heart rate curve (%) lower than 2%? O=c1ccc2c([C@@H](O)CNCCCCCCCCC[N+]34CCC(CC3)[C@@H](OC[C@@](O)(c3ccccc3)C3CCCC3)C4)ccc(O)c2[nH]1.[Br-]
NOT MET

====

Test system: β2 receptor in guinea pig tracheal smooth muscle
assay.protocol: BA activity: guinea pig isolated trachea pre-treated with histamine
measurement.conditions: Cavia porcellus, read-out: BA (EC50, nM)
metric.name: EC50 (nM)
// note: answer is a bare numeric in nM

Name the reported EC50 value associated with the molecule CC(NC[C@H](O)c1ccc(O)c(NC=O)c1)c1ccc(OCCC[N+]23CCC(CC2)[C@@H](OC[C@@](O)(c2ccccc2)C2CCCC2)C3)cc1.[Br-] (stereo partly drawn) [Compound 94]
33.5

Name the reported EC50 value associated with the molecule CC(Cc1ccc(OCC[N+]23CCC(CC2)[C@@H](OC[C@@](O)(c2ccccc2)C2CCCC2)C3)cc1)NC[C@H](O)c1ccc(O)c(NC=O)c1 (stereo partly drawn) [Compound 61]
12.9

Name the reported EC50 value associated with the molecule OCc1cc([C@@H](O)CNCCCCCCCCC[N+]23CCC(CC2)[C@@H](OC[C@@](O)(c2ccccc2)C2CCCC2)C3)ccc1O.[Br-] [Compound 7]
162

Name the reported EC50 value associated with the molecule CC(Cc1ccc(OCCC[N+]23CCC(CC2)[C@@H](OC[C@@](O)(c2ccccc2)C2CCCC2)C3)cc1)NC[C@H](O)c1ccc(O)c2[nH]c(=O)ccc12.[Br-] (stereo partly drawn) [Compound 80]
9.9

Name the reported EC50 value associated with the molecule O=c1ccc2c([C@@H](O)CNCCCCCCCCC[N+]34CCC(CC3)[C@@H](OC[C@@](O)(c3ccccc3)C3CCCC3)C4)ccc(O)c2[nH]1.[Br-] [Compound 12]
13.8

Name the reported EC50 value associated with the molecule CC(NC[C@H](O)c1ccc(O)c(CO)c1)c1ccc(OCCC[N+]23CCC(CC2)[C@@H](OC[C@@](O)(c2ccccc2)C2CCCC2)C3)cc1 (stereo partly drawn) [Compound 69]
18.7

Name the reported EC50 value associated with the molecule O=c1ccc2c([C@@H](O)CNCCCOc3ccc(OCCC[N+]45CCC(CC4)[C@@H](OC[C@@](O)(c4ccccc4)C4CCCC4)C5)cc3)ccc(O)c2[nH]1.[Br-] [Compound 131]
9.2

Name the reported EC50 value associated with the molecule O=CNc1cc([C@@H](O)CNCCCOc2ccc(OCCC[N+]34CCC(CC3)[C@@H](OC[C@@](O)(c3ccccc3)C3CCCC3)C4)cc2)ccc1O [Compound 113]
17.6

Name the reported EC50 value associated with the molecule OCc1cc([C@@H](O)CNCCCOc2ccc(OCCC[N+]34CCC(CC3)[C@@H](OC[C@@](O)(c3ccccc3)C3CCCC3)C4)cc2)ccc1O.[Br-] [Compound 122]
36.8
